Target: A3 (homomeric CNGA3) channels (Homo sapiens, UniProt Q16281)
Sequence (Q16281 whole entry): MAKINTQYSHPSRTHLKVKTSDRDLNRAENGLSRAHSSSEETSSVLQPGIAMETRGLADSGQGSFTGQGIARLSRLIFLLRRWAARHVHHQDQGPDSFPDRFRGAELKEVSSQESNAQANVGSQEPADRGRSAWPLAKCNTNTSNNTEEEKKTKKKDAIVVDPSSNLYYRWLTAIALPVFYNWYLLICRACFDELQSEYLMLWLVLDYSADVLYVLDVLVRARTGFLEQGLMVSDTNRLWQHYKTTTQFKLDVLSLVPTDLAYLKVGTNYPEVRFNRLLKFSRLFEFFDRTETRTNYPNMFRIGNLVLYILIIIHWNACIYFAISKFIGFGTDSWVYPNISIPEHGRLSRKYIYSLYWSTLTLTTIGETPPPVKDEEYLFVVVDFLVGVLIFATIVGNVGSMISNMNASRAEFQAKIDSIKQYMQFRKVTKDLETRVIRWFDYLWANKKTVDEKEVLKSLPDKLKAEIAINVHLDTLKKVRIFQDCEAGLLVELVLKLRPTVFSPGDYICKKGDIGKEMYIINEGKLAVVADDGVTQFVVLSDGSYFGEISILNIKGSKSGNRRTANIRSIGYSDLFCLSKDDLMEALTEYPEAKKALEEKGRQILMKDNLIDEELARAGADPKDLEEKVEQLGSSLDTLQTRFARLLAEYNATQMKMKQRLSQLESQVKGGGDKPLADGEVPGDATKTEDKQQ
Assay: inside-out patch clamp, macroscopic current dose-response, Hill fit
assay-endpoint: pEC50
When answering, recall that pEC50 equals minus log10 of the concentration in mol/L, and write that number alone.

Find the recorded pEC50 belonging to Nc1nc2c(ncn2[C@@H]2O[C@@H]3COP(=O)(O)O[C@H]3[C@H]2O)c(=O)[nH]1 [cGMP] and report it.
5.25
